- experiment.description: recombinant UMI read abundance after kanamycin selection (control-corrected) (log10(CPM+1)); higher = more efficient recombination; extreme values may be limits of the assay; sequences stand for … in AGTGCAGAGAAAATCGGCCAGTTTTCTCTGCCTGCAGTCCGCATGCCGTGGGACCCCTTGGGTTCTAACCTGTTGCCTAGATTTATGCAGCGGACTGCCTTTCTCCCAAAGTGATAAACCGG…AGGTTGGTTTCACT; site = the 11-nt donor;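 further: IS621 bridge recombinase in Escherichia coli cells against a fixed T5 target plasmid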

{"columns": ["item.sequence", "recombinant UMI read abundance (log10)"],
 "data": [
  ["AAACATCCATGGACCGGTTTTCCCGGTAATCCGTATTTGAC (site AGACATCCTGT)", 0],
  ["ATTCAAGCATGGACCGGTTTTCCCGGTAATCCGTATTTGAG (site ATGCAAGCTCT)", 0.501],
  ["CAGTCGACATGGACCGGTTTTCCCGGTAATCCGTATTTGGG (site CAGTCCACTCC)", 0.0168],
  ["AATTTTGCATGGACCGGTTTTCCCGGTAATCCGTATTTGGA (site AATTCTGCTTC)", 0.118],
  ["TGTTCACCATGGACCGGTTTTCCCGGTAATCCGTATTTGTA (site TGTTCCCCTTA)", 0.104],
  ["GTTGTCGCATGGACCGGTTTTCCCGGTAATCCGTATTTGCG (site GTGGTCGCTCG)", 0.009],
  ["GCCAAACCATGGACCGGTTTTCCCGGTAATCCGTATTTGGT (site GCCAAACCTAC)", 0],
  ["TTAAATCCATGGACCGGTTTTCCCGGTAATCCGTATTTGGT (site TTAAATCCTAC)", 0.0199],
  ["TCATAGACATGGACCGGTTTTCCCGGTAATCCGTATTTGAC (site TCATAGACTGT)", 0.421],
  ["GAAGACCCATGGACCGGTTTTCCCGGTAATCCGTATTTGCG (site GAAGACCCTCG)", 0.691],
  ["CCCTTTACATGGACCGGTTTTCCCGGTAATCCGTATTTGCT (site CCCTTTACTAG)", 1.76],
  ["ATTGAGACATGGACCGGTTTTCCCGGTAATCCGTATTTGGG (site ATTGAGACTAC)", 0.0103],
  ["CTGATACCATGGACCGGTTTTCCCGGTAATCCGTATTTGTA (site CTGATACCTTA)", 0.00514],
  ["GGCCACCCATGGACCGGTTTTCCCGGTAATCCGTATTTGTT (site GACCACCCTAA)", 0.018],
  ["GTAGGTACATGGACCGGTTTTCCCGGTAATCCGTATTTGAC (site GGAGGTACTGT)", 0],
  ["TGTTCCCCATGGACCGGTTTTCCCGGTAATCCGTATTTGGA (site TGTTCCCCTTC)", 0.128],
  ["TGCAATCCATGGACCGGTTTTCCCGGTAATCCGTATTTGAA (site AGCAATCCTTT)", 0.00584],
  ["CGAGGTCCATGGACCGGTTTTCCCGGTAATCCGTATTTGGG (site CGAGGACCTCC)", 0.0132],
  ["ATCCGAGCATGGACCGGTTTTCCCGGTAATCCGTATTTGAG (site ATCCTAGCTCT)", 0.0162],
  ["ACACGAGCATGGACCGGTTTTCCCGGTAATCCGTATTTGTC (site ACACGACCTGA)", 0],
  ["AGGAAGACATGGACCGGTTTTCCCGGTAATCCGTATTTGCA (site ATGAATACTTG)", 0],
  ["TCCACCGCATGGACCGGTTTTCCCGGTAATCCGTATTTGCT (site TCCACCGCTAG)", 0],
  ["GGTGCTACATGGACCGGTTTTCCCGGTAATCCGTATTTGGA (site GGTGCTACTTC)", 0.449],
  ["TCAGCGACATGGACCGGTTTTCCCGGTAATCCGTATTTGCG (site TCAGTGACTCG)", 0.00864],
  ["ATATGGACATGGACCGGTTTTCCCGGTAATCCGTATTTGAC (site ATATGGACTGT)", 2.7],
  ["GGATAGGCATGGACCGGTTTTCCCGGTAATCCGTATTTGCC (site GGATAGGCTGG)", 2.44],
  ["ATGTAGGCATGGACCGGTTTTCCCGGTAATCCGTATTTGAC (site ATGTAGGCTGG)", 1.57],
  ["GTAACTCCATGGACCGGTTTTCCCGGTAATCCGTATTTGTC (site GTAACTCCTGA)", 1.71],
  ["CGTGGTACATGGACCGGTTTTCCCGGTAATCCGTATTTGTT (site CGTGGTACTAA)", 1.25],
  ["AGGTCGGCATGGACCGGTTTTCCCGGTAATCCGTATTTGTA (site AGGTCGGCTTA)", 1.01],
  ["CCGTGAGCATGGACCGGTTTTCCCGGTAATCCGTATTTGTG (site CCGTTAGCTCA)", 0.00536],
  ["GCAGATCCATGGACCGGTTTTCCCGGTAATCCGTATTTGCT (site GCAGATCCTAG)", 0],
  ["CACACAACATGGACCGGTTTTCCCGGTAATCCGTATTTGAA (site CACACAACTTT)", 1.84],
  ["GCATGCGCATGGACCGGTTTTCCCGGTAATCCGTATTTGTT (site GCATGCGCTAA)", 1.82],
  ["TATTGTGCATGGACCGGTTTTCCCGGTAATCCGTATTTGGT (site TATTGTGCTAC)", 0.401],
  ["AAAGTCTCATGGACCGGTTTTCCCGGTAATCCGTATTTGCA (site ACAGTATCTTG)", 1.99]
]}
